assay: drug concentration in brain tissue, plasma and CSF after oral administration in mice; format: in vivo; settings: ICR (CD-1), mouse, portal vein plasma, po, 20 mg/kg, PO 20 mg/kg, 15 min, mean; read-out: Portal Vein Plasma
Measured attribute: concentration at 15 min

Input: Item under review: O=C(/C=C/c1ccccc1C(F)(F)F)N1C(=O)OC[C@@H]1c1ccccc1 [Example 27] . Reported concentration at 15 min?
Output: 371 ng/mL
